B1: library; numbered along this chain (parent)
chain: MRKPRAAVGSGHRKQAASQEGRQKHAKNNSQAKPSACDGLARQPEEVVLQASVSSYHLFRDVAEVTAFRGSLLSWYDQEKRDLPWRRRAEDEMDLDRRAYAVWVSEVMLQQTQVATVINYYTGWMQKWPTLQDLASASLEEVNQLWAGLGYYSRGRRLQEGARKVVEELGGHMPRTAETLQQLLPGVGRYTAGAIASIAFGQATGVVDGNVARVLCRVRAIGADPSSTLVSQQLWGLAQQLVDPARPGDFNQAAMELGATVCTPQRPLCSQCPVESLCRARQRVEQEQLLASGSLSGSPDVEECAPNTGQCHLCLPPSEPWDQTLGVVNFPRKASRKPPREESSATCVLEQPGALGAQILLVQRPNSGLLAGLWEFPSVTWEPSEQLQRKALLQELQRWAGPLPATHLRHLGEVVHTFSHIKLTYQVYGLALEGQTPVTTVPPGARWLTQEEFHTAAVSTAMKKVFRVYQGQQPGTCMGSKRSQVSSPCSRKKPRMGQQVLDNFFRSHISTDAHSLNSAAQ

variants of: B1; test: 8OG:A repair function score (normalized; synonymous = 0, nonsense = -1) (normalized log-likelihood score); higher = more repair activity (WT-like); details: with 8OG:A DNA repair reporter (GFP) in HEK-293 MUTYH KO cells;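 also: cells sorted at 72 h after reporter transfection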
measured-parameter: 8OG:A repair function score

>  <mutation-id>
I509M

>  <assay-result>
-0.0347

$$$$
>  <mutation-id>
A520Q

>  <assay-result>
0.00885

$$$$
>  <mutation-id>
F466T

>  <assay-result>
-0.725

$$$$
>  <mutation-id>
E167N

>  <assay-result>
0.0307

$$$$
>  <mutation-id>
K164M

>  <assay-result>
0.168

$$$$
